B1: TRIM15 (parent)
chain: QSSGKILLCPLCQEEEQAETPMAP

- Variants of: B1
- measurement-protocol: protein stability index of a GFP-peptide fusion (GPS, HEK-293T) (PSI 1-6); higher = more stable;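 further: lentivirally expressed fusions sorted by FACS into six bins by GFP to DsRed ratio, PSI derived from sequencing read proportions per bin multiplied by bin number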
- experimental-parameters: c terminus: a fixed tail appended
Would you please tag the item True when its protein stability index is 3 or above, and False when it is below?

INSERT INTO assay_data (mutation_list, discrete_label) VALUES
  ('S3L', 'True'),
  ('L11P', 'True'),
  ('S3M', 'True'),
  ('Q1F', 'False'),
  ('E19M', 'False'),
  ('L11C', 'True'),
  ('Q13D', 'True'),
  ('L11D', 'True'),
  ('Q17S', 'True'),
  ('S3V', 'True'),
  ('C12W', 'True'),
  ('L11R', 'True'),
  ('P21S', 'True'),
  ('E19C', 'False'),
  ('K5A', 'True'),
  ('E19W', 'False'),
  ('A18Y', 'False'),
  ('K5P', 'True'),
  ('C9R', 'True'),
  ('Q13L', 'True'),
  ('P21R', 'False'),
  ('L8A', 'True'),
  ('I6T', 'True'),
  ('M22K', 'True'),
  ('S2E', 'True'),
  ('K5H', 'True'),
  ('A23K', 'True'),
  ('M22C', 'True'),
  ('T20G', 'False'),
  ('Q13I', 'True'),
  ('G4D', 'True'),
  ('A18G', 'False'),
  ('Q13P', 'True'),
  ('A23D', 'True'),
  ('T20W', 'False'),
  ('I6Y', 'True'),
  ('P21Q', 'True'),
  ('Q1L', 'True'),
  ('S2W', 'False'),
  ('P21G', 'True'),
  ('E16T', 'False'),
  ('G4W', 'False');
